Biological target: human androgen receptor (Homo sapiens, UniProt P10275)
Construct: expressed in transfected cells; host or cells: CHO cells, cell line CHO-AR-pMMTV-LUC 1G12-A5-CA
Experiment: androgenic activity (EC50, potency, efficacy), transactivation bioassay in CHO-AR-pMMTV-LUC cells in the presence of 0.1 μmol/l onapristone (Table 5)
Type: cell-based
Conditions: maximal intrinsic activity; activity in the presence of 100 nM DHT set at 1.00; CHO-AR-pMMTV-LUC cells; 0.1 μmol/l onapristone; read-out: ago efficacy
readoutLabel: Emax

1) N#Cc1ccc2c(Sc3ccccc3[N+](=O)[O-])cn(Cc3ccncn3)c2c1 ... > 80%
2) O=C(Nc1ccc2c(Sc3ccccc3[N+](=O)[O-])cn(Cc3cc(F)cc(F)c3)c2c1)C(F)F ... 50 to 80%
3) CCC(=O)Nc1ccc2c(Sc3ccccc3[N+](=O)[O-])cn(Cc3cc(F)cc(F)c3)c2c1 ... 50 to 80%
4) Cn1cnc(S(=O)(=O)Nc2ccc3c(Sc4ccccc4[N+](=O)[O-])cn(Cc4cc(F)cc(F)c4)c3c2)c1 ... > 80%
5) CN(C)C(=O)c1ccc2c(Sc3ccccc3[N+](=O)[O-])cn(Cc3ccccn3)c2c1 ... > 80%
6) N#Cc1ccc2c(Sc3ccccc3[N+](=O)[O-])cn(Cc3cncnc3)c2c1 ... > 80%
7) CC(=O)Nc1ccc2c(Sc3ccccc3[N+](=O)[O-])cn(Cc3ccccn3)c2c1 ... 50 to 80%
8) COc1ccc2c(Sc3ccccc3[N+](=O)[O-])cn(Cc3ccncc3)c2c1 ... 50 to 80%

====

The reader will find reported pEC50 values listed item by item below.
Target: human androgen receptor (Homo sapiens)
Construct: expressed in transfected cells; host or cells: CHO cells, cell line CHO-AR-pMMTV-LUC 1G12-A5-CA
Experiment: androgenic activity (EC50 and intrinsic activity), transactivation bioassay in CHO-AR-pMMTV-LUC cells (Table 4)
Format: cell-based
Details: androgenic activity, read-out: ago EC50
pEC50: −log10 of the molar value.
readoutLabel: pEC50

1) COc1ccc2c(Sc3ccccc3[N+](=O)[O-])cn(Cc3ccccc3F)c2c1 ... > 6.00
2) CNC(=O)c1ccc2c(Sc3ccccc3[N+](=O)[O-])cn(Cc3cc(F)cc(F)c3)c2c1 ... > 8.30
3) COc1ccc2c(Sc3ccccc3[N+](=O)[O-])cn(Cc3c(C)noc3C)c2c1 ... > 6.00
4) COc1ccc2c(Sc3ccccc3[N+](=O)[O-])cn(Cc3cc(F)ccc3F)c2c1 ... 7.00 to 8.30
5) CNC(=O)c1ccccc1Sc1cn(Cc2cc(F)cc(F)c2)c2cc(OC)ccc12 ... < 5.00
6) O=[N+]([O-])c1ccccc1Sc1cn(Cc2cc(F)cc(F)c2)c2cccc(F)c12 ... > 8.30
7) COc1ccc2c(Sc3ccccc3[N+](=O)[O-])cn(Cc3cccc(C#N)c3)c2c1 ... > 8.30
8) O=C(NC1CC1)c1ccc2c(Sc3ccccc3[N+](=O)[O-])cn(Cc3cc(F)cc(F)c3)c2c1 ... > 8.30

====

Target: human androgen receptor (Homo sapiens)
Construct: expressed in transfected cells; host or cells: CHO cells, cell line CHO-AR-pMMTV-LUC 1G12-A5-CA
Assay: androgenic activity (EC50, potency, efficacy), transactivation bioassay in CHO-AR-pMMTV-LUC cells in the presence of 0.1 μmol/l onapristone (Table 5)
Type: cell-based
Conditions: potency expressed as percentage of DHT activity; CHO-AR-pMMTV-LUC cells; in the presence of 0.1 μmol/l onapristone
readoutLabel: ago potency

1) CCC(=O)Nc1ccc2c(Sc3ccccc3[N+](=O)[O-])cn(Cc3cc(F)cc(F)c3)c2c1 [Compound 99] ... ± (between 0.1% and 1%)
2) COc1ccc2c(Sc3ccccc3[N+](=O)[O-])cn(Cc3cc(F)c(F)c(F)c3)c2c1 [Compound 94] ... + (between 1% and 5%)
3) CCC(=O)Nc1ccc2c(Sc3ccccc3[N+](=O)[O-])cn(Cc3ccccn3)c2c1 [Compound 102] ... + (between 1% and 5%)
4) COc1ccc2c(Sc3ccccc3[N+](=O)[O-])cn(Cc3ccncc3)c2c1 [Compound 93] ... ± (between 0.1% and 1%)
5) N#Cc1cccc(Cn2cc(Sc3ccccc3[N+](=O)[O-])c3ccc(C#N)cc32)c1 [Compound 125] ... + (between 1% and 5%)
6) Cn1cnc(S(=O)(=O)Nc2ccc3c(Sc4ccccc4[N+](=O)[O-])cn(Cc4cc(F)cc(F)c4)c3c2)c1 [Compound 108] ... + (between 1% and 5%)
7) COc1ccc2c(Sc3ccccc3[N+](=O)[O-])cn(Cc3ccc(Cl)nc3)c2c1 [Compound 96] ... ± (between 0.1% and 1%)

====

Molecular target: human androgen receptor (Homo sapiens, UniProt P10275)
Construct: expressed in transfected cells; host or cells: CHO cells, cell line CHO-AR-pMMTV-LUC 1G12-A5-CA
Assay: cell-based
Conditions: antiandrogenic activity, in the presence of 1 nM DHT; read-out: ant EC50
pEC50: −log10 of the molar value.
readoutLabel: pEC50

1. COCCNC(=O)c1ccc2c(Sc3ccccc3[N+](=O)[O-])cn(Cc3cc(F)cc(F)c3)c2c1 ... < 5.00
2. CN(C)C(=O)c1ccc2c(Sc3ccccc3[N+](=O)[O-])cn(Cc3cc(F)cc(F)c3)c2c1 ... < 5.00
3. O=[N+]([O-])c1ccccc1Sc1cn(Cc2ccccc2)c2ccccc12 ... < 5.00
4. COc1ccc2c(Sc3ccccc3[N+](=O)[O-])cn(Cc3ccccn3)c2c1 ... > 8.30

====

Target: human androgen receptor (Homo sapiens)
Construct: expressed in transfected cells; host or cells: CHO cells, cell line CHO-AR-pMMTV-LUC 1G12-A5-CA
Assay: androgenic activity (EC50, potency, efficacy), transactivation bioassay in CHO-AR-pMMTV-LUC cells in the presence of 0.1 μmol/l onapristone (Table 5)
Assay type: cell-based
Settings: potency expressed as percentage of DHT activity; CHO-AR-pMMTV-LUC cells; in the presence of 0.1 μmol/l onapristone
Experimental: The androgenic activity (EC50, potency, and efficacy) of the compounds in Table 5 was determined in an in vitro bioassay of Chinese hamster ovary (CHO) cells stably transfected with the human androgen receptor expression plasmid and a reporter plasmid in which the MMTV promoter is linked to the luciferase reporter gene. […] The androgen receptor activity of compounds was determined in the presence of 0.1 μmol/l onapristone. […] The potencies are expressed as percentage of DHT activity.
readoutLabel: ago potency

1) CNC(=O)c1ccc2c(Sc3ccccc3[N+](=O)[O-])cn(Cc3cccnc3)c2c1 ... + (between 1% and 5%)
2) N#Cc1ccc2c(Sc3ccccc3[N+](=O)[O-])cn(Cc3cncnc3)c2c1 ... ++ (>5%)
3) COc1ccc2c(Sc3ccccc3[N+](=O)[O-])cn(Cc3cncnc3)c2c1 ... ++ (>5%)
4) O=[N+]([O-])c1ccccc1Sc1cn(Cc2cc(F)cc(F)c2)c2cc(NS(=O)(=O)c3ccsc3)ccc12 ... + (between 1% and 5%)
5) CCC(=O)Nc1ccc2c(Sc3ccccc3[N+](=O)[O-])cn(Cc3cccnc3)c2c1 ... + (between 1% and 5%)

====

Target: human androgen receptor (Homo sapiens)
Construct: expressed in transfected cells; host or cells: CHO cells, cell line CHO-AR-pMMTV-LUC 1G12-A5-CA
Sequence (P10275 1-920): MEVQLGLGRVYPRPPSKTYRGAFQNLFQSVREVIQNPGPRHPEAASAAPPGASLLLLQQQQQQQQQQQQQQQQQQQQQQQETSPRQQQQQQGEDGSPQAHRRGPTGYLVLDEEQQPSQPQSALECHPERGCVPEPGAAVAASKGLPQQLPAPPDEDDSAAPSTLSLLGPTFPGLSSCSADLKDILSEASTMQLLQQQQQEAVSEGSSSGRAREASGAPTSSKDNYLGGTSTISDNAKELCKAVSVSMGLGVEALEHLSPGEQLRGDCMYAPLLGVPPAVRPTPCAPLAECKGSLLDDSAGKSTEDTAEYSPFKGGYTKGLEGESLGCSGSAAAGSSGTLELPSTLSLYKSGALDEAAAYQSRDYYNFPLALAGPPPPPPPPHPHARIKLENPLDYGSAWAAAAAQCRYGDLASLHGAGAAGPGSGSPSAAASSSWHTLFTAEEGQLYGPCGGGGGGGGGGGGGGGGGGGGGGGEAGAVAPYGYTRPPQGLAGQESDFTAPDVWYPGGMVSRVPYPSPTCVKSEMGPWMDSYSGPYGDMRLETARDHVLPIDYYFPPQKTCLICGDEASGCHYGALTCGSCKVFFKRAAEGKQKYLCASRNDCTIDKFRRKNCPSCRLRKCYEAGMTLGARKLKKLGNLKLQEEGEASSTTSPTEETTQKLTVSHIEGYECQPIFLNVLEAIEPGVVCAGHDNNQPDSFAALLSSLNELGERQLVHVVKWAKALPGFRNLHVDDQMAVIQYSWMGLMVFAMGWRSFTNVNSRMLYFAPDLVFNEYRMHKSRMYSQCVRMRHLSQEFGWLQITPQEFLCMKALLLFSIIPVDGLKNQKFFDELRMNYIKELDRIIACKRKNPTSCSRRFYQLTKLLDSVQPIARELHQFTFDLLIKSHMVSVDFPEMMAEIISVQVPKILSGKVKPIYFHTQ
Assay: androgenic activity (EC50, potency, efficacy), transactivation bioassay in CHO-AR-pMMTV-LUC cells in the presence of 0.1 μmol/l onapristone (Table 5)
Assay type: cell-based
Conditions: potency expressed as percentage of DHT activity; CHO-AR-pMMTV-LUC cells; in the presence of 0.1 μmol/l onapristone
readoutLabel: ago potency

1) CNC(=O)c1ccc2c(Sc3ccccc3[N+](=O)[O-])cn(Cc3ccccn3)c2c1 ... + (between 1% and 5%)
2) CC(=O)Nc1ccc2c(Sc3ccccc3[N+](=O)[O-])cn(Cc3ccccn3)c2c1 ... + (between 1% and 5%)
3) COc1ccc2c(Sc3ccccc3[N+](=O)[O-])cn(Cc3ccncn3)c2c1 ... + (between 1% and 5%)
